Biological target: T1, human CD4 on the surface of SKW3 cells or human PBMCs (human, UniProt P01730 26-458)
T1 construct: whole, on cells; SKW3 CD4 knockout cells served as the negative cell line; also called hCD4; SKW3 WT
Test: FACS confirmation, supernatant on human PBMCs, anti-mouse Fc A647, CD4+ gate
Reported PBMCs, anti-mFc 647 CD4+ gate - RL1 Binding values for the following binders.
# respond with the number and nothing more

Look over these answered cases.
[[record]]
binder = "75110_12H17A (antibody, V domains shown, Tested here as non-clonal hybridoma supernatant from AlivaMab Mouse Kappa mice (detected with anti-mouse Fc and anti-human kappa)) VH: EVQLVESGGGLVQPGGSLRLSCAASGFTFSDYWMSWVRQAPGKGLEWVANIKEDGNEKYYVDSVKGRFTISRDNAKNSLFLQMNSLRAEDTAVYYCAREGGQWLALDYWGQGALVTVSS VL: DIQMTQSPSSVSASVGDRVTITCRASQGISSWLAWYQQKPGKAPKFLISGASSLQSGVPSRFTGSGSGTDFTLTISSLQPEDFATYYCQQANSFPWTFGQGTKVEIK"
reported = 264000

[[record]]
binder = "75110_02E08A (antibody, V domains shown, Tested here as non-clonal hybridoma supernatant from AlivaMab Mouse Kappa mice (detected with anti-mouse Fc and anti-human kappa)) VH: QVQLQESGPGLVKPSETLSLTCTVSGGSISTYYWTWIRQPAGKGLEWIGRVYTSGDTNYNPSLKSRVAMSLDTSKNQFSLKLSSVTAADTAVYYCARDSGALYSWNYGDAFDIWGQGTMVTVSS VL: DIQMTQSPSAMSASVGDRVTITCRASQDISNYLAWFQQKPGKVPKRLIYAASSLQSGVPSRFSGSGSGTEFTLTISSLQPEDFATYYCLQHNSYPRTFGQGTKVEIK"
reported = 317000

[[record]]
binder = "75110_01J09A (antibody, V domains shown, Tested here as non-clonal hybridoma supernatant from AlivaMab Mouse Kappa mice (detected with anti-mouse Fc and anti-human kappa)) VH: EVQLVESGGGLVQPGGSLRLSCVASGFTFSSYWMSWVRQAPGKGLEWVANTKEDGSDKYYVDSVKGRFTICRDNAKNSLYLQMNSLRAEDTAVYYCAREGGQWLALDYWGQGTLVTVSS VL: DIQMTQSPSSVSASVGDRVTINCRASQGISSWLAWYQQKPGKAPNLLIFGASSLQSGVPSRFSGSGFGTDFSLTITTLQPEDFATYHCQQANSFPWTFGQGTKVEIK"
reported = 321000


--- query ---
### Prompt Give a short answer stating reported PBMCs, anti-mFc 647 CD4+ gate - RL1 Binding for 75110_07H07A (antibody, V domains shown, Tested here as non-clonal hybridoma supernatant from AlivaMab Mouse Kappa mice (detected with anti-mouse Fc and anti-human kappa)) VH: EVQVVESGGGLVQPGGSLRLSCAASGFTFSSYWMSWVRQAPGKGLEWVANIKEEGSEKYYVDSVKGRFTISRDNAKNSLYLQMNSLRAEDTAVYYCVREGGQWLALDYWGQGTLVTVSS VL: DIQMTQSPSSVSGSVGDRVTITCRASQGISSWLAWYQQKPGKAPKLLIFGASSLQSGVPSRFSGSGSGTDFTLTISSLQPEDFATYYCQQANSFPWTFGQGTKVQIK .
### Response 234000
